Ref: paper PMC11062922

- System: ROCK2
- Set-up: species or system human, MV4-11 + K-562 + COLO205 + SK-N-BE2 + OVCAR-8
- condition.notes: read-out: apparent Kd; compound concentrations:100 nM and 1000 nM (sheet 'Samples'); n = 1
The label is 1 (yes) for potency estimated from few doses below 100 nM and 0 (no) for potency estimated from few doses equal to or exceeding 100 nM.

[
  {
    "compound": "CCn1c(-c2nonc2N)nc2cncc(C(=O)N3CC[C@H](N)C3)c21.Cl",
    "label": "1 (yes)"
  },
  {
    "compound": "COc1cc(C2=NC(c3ccc(Cl)cc3F)C(C(=O)Nc3ccc4[nH]ncc4c3)=C(C)N2)ccn1.O=C(O)C(F)(F)F (stereo not shown) [GSK534911A]",
    "label": "0 (no)"
  },
  {
    "compound": "CCn1c(-c2nonc2N)nc2ccccc21",
    "label": "0 (no)"
  },
  {
    "compound": "C[C@@H]1CC[C@H](C(=O)NC2CCCCC2)CN1c1cc(-c2ccc3c(N)n[nH]c3c2)nc(N)n1 [GSK2291363A]",
    "label": "0 (no)"
  },
  {
    "compound": "COc1ccc(C[C@@H](CN)NC(=O)c2cc(Br)c(-c3ccnc4[nH]ccc34)s2)cc1.COc1ccc(C[C@@H](CN)NC(=O)c2cc(Br)c(-c3ccnc4[nH]ccc34)s2)cc1.Cl.Cl [GSK1389063A]",
    "label": "1 (yes)"
  },
  {
    "compound": "CN(C)CC(O)COc1ccc(Nc2nccc(-c3cnn4nc(N5CCOCC5)ccc34)n2)cc1 (stereo not shown) [GW767488X]",
    "label": "0 (no)"
  }
]
